Kd listing for selected binders.
TARGET SYSTEM: T1, cynomolgus PD-1 ECD (Acro Biosystems cat. no. PD1-05223) (cynomolgus, UniProt B0LAJ3 25-170)
T1 construct: Bought monomeric ECD; not shown: any purification tag of the vendor's product (Acro Biosystems PD1-05223, probably a His tag)
T1 sequence (B0LAJ3 entry or part of it limits assumed): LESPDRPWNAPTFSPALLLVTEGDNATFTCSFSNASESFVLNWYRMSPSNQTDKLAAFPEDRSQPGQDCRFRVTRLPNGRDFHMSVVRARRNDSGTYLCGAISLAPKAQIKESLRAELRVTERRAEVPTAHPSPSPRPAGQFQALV
ASSAY SUMMARY: SPR, antibody on sensor, monomeric PD-1 ECD in solution
Quick note: give the figure in nM, leave out the unit.

binder="antibody 18098 (antibody, V domains shown, Tested as human IgG1 L234A/L235A (LALA), kappa) VH: QVQLQESGGGLVRPGGSLRLSCAASGFTFSSFAMNWVRQAPGKGLVWVSTITGGGTTSYYADSVKGRFTISRDNSKSTLFLQMNSLRAEDTAVYYCAKWGSWSAGAFDIWGQGTTVTVSS VL: DIQLTQSPSSVSASVGDRVTITCRASQGISSWLAWYQQKPGKAPKLLIYAASSLQSGVPSRFSGSGSGTDFTLTISSLQPEDFATYYCQQANSFPWTFGQGTKVEIKR" readout_number=34

Input: Requested read-out: Kd. Entry: antibody 18413 (antibody, V domains shown, Tested as human IgG1 L234A/L235A (LALA), kappa) VH: EVQLVESGGGLVQPGGSLRLSCAASGFTFSSFVMSWVRQAPGKGLEWLSTISGGGGSTYYADSVKGRFTISRDNSKNTLYLQMNSLRAEDTAVYYCAKDWDLYYFDYWGQGTLVTVSS VL: DIQLTQSPSSVPASVGDRVTITCRASQGISNWLAWYQQKPGKAPKLLIYAASSLQSGVPSRFSGSGSGTDFTLTISSLQPEDFATYYCQQANSFPLTFGGGTKVEIKR
Output: 6.4

Input: Try this binder next: antibody 18325 (antibody, V domains shown, Tested as human IgG1 L234A/L235A (LALA), kappa) VH: QVQLQQSGGGLVQPGGSLRLSCAASGFTFSSHVMNWVRQAPGKGLEWVATISGSGVDTYYADSVKGRFTISRGNSKNMLYLQMNSLRAEDTAVYYCAKWGSWSAGAFDIWGQGTMVTVSS VL: EIVLTQSPSSVSASVGDRVTITCRASQGISSWLAWYQQKPGKAPKLLIYAASSLQSGVPSRFSGSGSGTDFTLTISSLQPEDFATYYCQQANSFPWTFGQGTKVEIKR
Output: 4.3
